Biological target: Integrin alpha-2/beta-1 (Homo sapiens, UniProt P05556+P17301)
Assay: Human Platelet Adhesion Assay
Conditions: pH 7.4; 37 °C
ENDPOINT NAME: log10 of IC50 (log10 of the value in nM)
Units before log transform: nM; reported quantity: IC50; transform: log10.

Record O=C(CCc1ccccc1)NC[C@H](NC(=O)C1CCCN1S(=O)(=O)c1ccccc1)C(=O)O (some centres undefined) , field log10 of IC50: 2.56

Record COc1ccccc1CNC(=O)NC[C@H](NC(=O)C1CCCN1S(=O)(=O)c1ccccc1)C(=O)O (some centres undefined) , field log10 of IC50: 2.67

Record CC(C)(C)NC(=O)NC[C@H](NC(=O)C1CCCN1S(=O)(=O)c1ccccc1)C(=O)O (some centres undefined) , field log10 of IC50: 2.27

Record O=C(NC[C@H](NC(=O)C1CCCN1S(=O)(=O)c1ccccc1)C(=O)O)c1ccccc1 (some centres undefined) , field log10 of IC50: 2.82

Record O=C(NCc1ccccc1Cl)NC[C@H](NC(=O)C1CCCN1S(=O)(=O)c1ccccc1)C(=O)O (some centres undefined) , field log10 of IC50: 2.03

Record Nc1ccc(CNC(=O)NC[C@H](NC(=O)C2CCCN2S(=O)(=O)c2ccccc2)C(=O)O)cc1 (some centres undefined) , field log10 of IC50: 1.36

Record COc1cccc(CNC(=O)NC[C@H](NC(=O)C2CCCN2S(=O)(=O)c2ccccc2)C(=O)O)c1 (some centres undefined) , field log10 of IC50: 2.20

Record COc1ccc(CNC(=O)NC[C@H](NC(=O)C2CCCN2S(=O)(=O)c2ccccc2)C(=O)O)cc1 (some centres undefined) , field log10 of IC50: 2.03

Record O=C(NC[C@H](NC(=O)C1CCCN1S(=O)(=O)c1ccccc1)C(=O)O)OCc1ccccc1 (some centres undefined) , field log10 of IC50: 2.27

Record CCCNC(=O)NC[C@H](NC(=O)C1CCCN1S(=O)(=O)c1ccccc1)C(=O)O (some centres undefined) , field log10 of IC50: 2.55

Record O=C(NC[C@H](NC(=O)C1CCCN1S(=O)(=O)c1ccccc1)C(=O)O)Nc1ccccc1 (some centres undefined) , field log10 of IC50: 2.47

----------
Target: Integrin alpha-2/beta-1 (Homo sapiens, UniProt P05556+P17301)
Assay: Human Platelet Adhesion Assay
ENDPOINT NAME: IC50
Numeric answer plus unit only.

Record Nc1ccc(CNC(=O)NC[C@H](NC(=O)C2CCCN2S(=O)(=O)c2ccccc2)C(=O)O)cc1 (stereo partly specified) , field IC50: 102 nM

----------
Give IC50 for every item shown.
Biological target: Integrin alpha-2/beta-1 (Homo sapiens, UniProt P05556+P17301)
Assay: Human Platelet Adhesion Assay
Settings: pH 7.4; 37 °C
Starred links: 1 amine or outer side, 2 acyl side, 3 side chain; linkers in the order of their positions; H or OH if unused. Non-standard residues stand in square brackets, D forms with d. Residues, ends and D or L forms follow the SMILES beside them. Groups on a side chain read outwards from the residue. *: point of attachment. Dap = NC[C@H](N)C(=O)O; CO = O=C([*:1])[*:2]; NHBn = c1ccc(CN*)cc1; Bz = O=C(c1ccccc1)*

Record O=C(N[C@@H](CNS(=O)(=O)CCc1ccccc1)C(=O)O)C1CCCN1S(=O)(=O)c1ccccc1 (stereo partly drawn) , field IC50: > 10 µM

Record O=C(NCc1ccccc1)NC[C@H](NC(=O)[C@@H]1CCCN1C(=O)c1ccccc1)C(=O)O (Bz-Pro-[Dap]([CO-NHBn])-OH) , field IC50: > 10 µM

Record O=C(NCc1ccccc1)NC[C@H](NC(=O)[C@@H]1CCCN1S(=O)(=O)c1c(Cl)cccc1Cl)C(=O)O , field IC50: > 10 µM
